- target.or.test.system: βTrCP (Homo sapiens)
- Sequence (Q9Y297 whole entry): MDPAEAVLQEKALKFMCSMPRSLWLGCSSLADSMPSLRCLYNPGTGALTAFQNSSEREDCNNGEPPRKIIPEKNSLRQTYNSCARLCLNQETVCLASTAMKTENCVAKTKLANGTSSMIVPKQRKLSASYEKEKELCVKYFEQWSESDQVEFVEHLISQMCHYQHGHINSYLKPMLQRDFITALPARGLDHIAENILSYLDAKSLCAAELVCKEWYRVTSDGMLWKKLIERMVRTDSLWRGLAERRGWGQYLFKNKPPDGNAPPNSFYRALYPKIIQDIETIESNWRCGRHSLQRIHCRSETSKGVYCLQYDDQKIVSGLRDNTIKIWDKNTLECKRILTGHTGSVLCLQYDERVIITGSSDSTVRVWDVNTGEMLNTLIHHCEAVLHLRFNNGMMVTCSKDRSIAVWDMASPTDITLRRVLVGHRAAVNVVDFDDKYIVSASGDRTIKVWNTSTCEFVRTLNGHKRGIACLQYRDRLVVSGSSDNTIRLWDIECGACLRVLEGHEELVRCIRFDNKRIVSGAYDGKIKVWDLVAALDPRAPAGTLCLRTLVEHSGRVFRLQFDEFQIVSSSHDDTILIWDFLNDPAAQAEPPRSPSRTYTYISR
- Sequence (P63208 whole entry partner): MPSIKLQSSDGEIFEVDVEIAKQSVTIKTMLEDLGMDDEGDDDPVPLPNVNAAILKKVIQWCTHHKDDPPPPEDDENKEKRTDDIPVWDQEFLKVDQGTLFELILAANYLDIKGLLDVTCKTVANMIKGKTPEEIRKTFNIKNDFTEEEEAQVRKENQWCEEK
- test.details: Fluorescence polarisation (FP) binding assay with fluorescein-tagged IκB peptide
- conditions: Table 11, with spread; read-out: FP IC50/μM
Non-standard residues stand in square brackets, D forms with d. Residues, ends and D or L forms follow the SMILES beside them. Phe(3-F) = N[C@@H](Cc1cccc(F)c1)C(=O)O; pS = N[C@@H](COP(=O)(O)O)C(=O)O
readout.label: IC50

compound="CC[C@H](C)[C@H](NC(=O)CNC(=O)[C@H](COP(=O)(O)O)NC(=O)[C@@H](N)CC(=O)O)C(=O)N[C@@H](Cc1ccccc1)C(=O)N[C@@H](CCC(=O)O)C(N)=O [UBP001, DpSGIFE-NH2] (H-D[pS]GIFE-NH2)" result="1.24 µM"
compound="CC(=O)N[C@H](CC(=O)O)C(=O)N[C@@H](CCC(=O)O)C(=O)NCC(=O)N[C@@H](Cc1cccc(F)c1)C(=O)N[C@@H](Cc1c[nH]c2ccccc12)C(=O)N[C@@H](CCC(=O)O)C(N)=O [UBP017, Ac-dEGF(3F)WE-NH2] (Ac-[dD]EG[Phe(3-F)]WE-NH2)" result="0.102 µM"
